Test system: A549 cells
protocolDescription: MTT cell viability assay, A549
Type: cell-based
details: Homo sapiens, A549, 48 h, read-out: IC50, cell viability (MTT)
pIC50: −log10 of the molar value.
attributeMeasured: pIC50

compound | assaySystem | attributeMeasured | measurement
COc1ccc2c3c([nH]c2c1)C(C)=NCC3 [harmaline] | A549 cells | pIC50 | 4.17

====

assaySystem: UniProt Q9NYA1
Sequence (Q9NYA1 whole entry): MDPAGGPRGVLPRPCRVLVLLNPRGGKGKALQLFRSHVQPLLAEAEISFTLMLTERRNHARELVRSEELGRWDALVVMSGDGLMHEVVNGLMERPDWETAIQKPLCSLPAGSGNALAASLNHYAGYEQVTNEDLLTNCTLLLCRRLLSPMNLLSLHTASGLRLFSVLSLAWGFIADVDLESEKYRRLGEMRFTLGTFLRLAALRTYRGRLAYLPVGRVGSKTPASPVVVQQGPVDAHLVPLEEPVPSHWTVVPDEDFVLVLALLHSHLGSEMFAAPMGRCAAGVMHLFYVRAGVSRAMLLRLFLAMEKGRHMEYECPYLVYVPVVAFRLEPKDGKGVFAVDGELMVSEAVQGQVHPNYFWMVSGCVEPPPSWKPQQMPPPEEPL
protocolDescription: Isothermal titration calorimetry of harmaline with SphK1
Format: binding
details: dissociation constant KD1, ITC, site 1

smilesData | readoutUnit | Kd
COc1ccc2c3c([nH]c2c1)C(C)=NCC3 | µM | 52.9

src = paper PMC7469376
